# assayed target: UniProt:O43570
# Sequence (O43570 whole entry): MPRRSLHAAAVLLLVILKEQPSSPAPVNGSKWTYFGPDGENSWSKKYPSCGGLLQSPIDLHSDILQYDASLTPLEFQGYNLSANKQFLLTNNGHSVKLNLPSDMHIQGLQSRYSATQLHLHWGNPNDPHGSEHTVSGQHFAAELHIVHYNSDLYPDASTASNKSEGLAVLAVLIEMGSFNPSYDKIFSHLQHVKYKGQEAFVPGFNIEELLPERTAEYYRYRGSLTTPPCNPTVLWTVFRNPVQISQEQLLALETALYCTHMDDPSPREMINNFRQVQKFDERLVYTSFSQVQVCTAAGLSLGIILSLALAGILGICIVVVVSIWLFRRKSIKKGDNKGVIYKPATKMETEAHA
# test protocol: Inhibition of human recombinant carbonic anhydrase 12 preincubated for 15 mins at room temperature/6 hrs at 4 deg C by stopped-flow CO2 hydration assay

>  <molecule>
C[C@@H]1O[C@@H](Oc2c(-c3ccc(O)c(O)c3)oc3cc(O)cc(O)c3c2=O)[C@H](O)[C@H](O)[C@H]1O [QUERCETIN-3-O-RHAMNOSIDE]

>  <assayed target>
UniProt:O43570

>  <units symbol>
nM

>  <Ki>
43.5

$$$$
>  <molecule>
O=c1c(O)c(-c2ccccc2)oc2cc(O)cc(O)c12

>  <assayed target>
UniProt:O43570

>  <units symbol>
nM

>  <Ki>
41.8

$$$$
>  <molecule>
O=C(/C=C/c1ccc(O)c(O)c1/C=C/c1ccc(O)c(O)c1)O[C@H](Cc1ccc(O)c(O)c1)C(=O)O

>  <assayed target>
UniProt:O43570

>  <units symbol>
nM

>  <Ki>
39.8

$$$$
>  <molecule>
O=c1c(O)c(-c2ccc(O)cc2)oc2cc(O)cc(O)c12

>  <assayed target>
UniProt:O43570

>  <units symbol>
nM

>  <Ki>
146

$$$$
